Data origin: the METLIN SMRT retention time set (Domingo-Almenara et al. 2019)

Assay text: gradient 5% acetonitrile 3 min, to 50% in 2 min, to 85% in 15 min, held 3 min, 100 µL/min
Test settings: column: Zorbax Extend-C18 2.1 x 50 mm; eluents: water / acetonitrile, 0.1% formic acid
Recorded metric: RP-LC retention time (s)

O=C1COc2ccc(S(=O)(=O)N3CCC(C(=O)NCc4ccc5c(c4)OCO5)CC3)cc2N1	708
COC(=O)CNC(=O)N1CCN(c2nc3ccccc3n3cccc23)CC1	590
O=C(N1CCC(Cc2nc(C3CCOCC3)no2)CC1)C1(c2ccccc2)CC1	817
Cc1nn(-c2ccccc2)c(C)c1S(=O)(=O)N1CCC(C(=O)NC2CCCC2)CC1	860
OC(CNCC(O)C1CCc2cc(F)ccc2O1)C1CCc2cc(F)ccc2O1 (centres undefined)	744

(a) COc1ccc(-c2nc(N3CCN(C4CCCCC4)CC3)c3ccccc3n2)cc1
(b) COc1ccc(N2CCN(c3cc(SCC(=O)Nc4cccc(SC)c4)ncn3)CC2)cc1
query: Hello, I am sorting some records. Could you say if a or b has the smaller RP-LC retention time value? Lab note: record the label of whichever item you select.
result: a
(a: 589 s, b: 1000 s)
